measured target: Mitogen-activated protein kinase 10 (Mus musculus) (UniProt Q61831)
assay details: JNK3 AlphaScreen Assay (AID 530);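 further: kinase came from lysate of stimulated human HepG2 cells; signal reports phosphorylation of biotinylated GST-cJun 1-79 at Ser73 with 10 µM ATP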
study conditions: JNK3 lysate, c-Jun phosphorylation; series mostly up to 57.1 µM
Records with an inconclusive call do not appear. Activity calls are given as the source filed them. The call rests on the fitted dose curve; in most records, active means well fitted curve in either direction with a large enough effect (not every such curve was filed as active); inconclusive means small, poorly fitted or top-dose-only effect, or another doubt; inactive means flat fitted curve, though single readings scatter.
experimental readout: outcome

Field: example entries. Status: answers known.
{"molecule": "COC(=O)[C@@]1(Cc2ccc(OC)cc2)[C@H]2c3cc(C(=O)N(C)C)n(C[C@H](O)CO)c3C[C@H]2CN1C(=O)c1ccccc1", "outcome": "inactive"}
{"molecule": "CCc1c2c(nc3ccc(OC)cc13)OC(C)C2 (stereo unspecified)", "outcome": "inactive"}
{"molecule": "CNC(=O)C1(C)C=CCN1C(=O)OC (stereo unspecified)", "outcome": "inactive"}
{"molecule": "COCCNC(=O)C1(CC(C)C)C=CCN1C(=O)OC (stereo unspecified)", "outcome": "inactive"}
{"molecule": "COC(=O)[C@@]1(Cc2ccc(OC)cc2)[C@H]2c3cc(C(=O)N(C)C)n(CCc4ccc(O)c(OC)c4)c3C[C@H]2CN1C(=O)c1ccccc1", "outcome": "inactive"}
{"molecule": "COC(=O)[C@@]1(Cc2ccc(F)cc2)[C@H]2c3cc(C(=O)N4CCCC4)n(C[C@H](O)CO)c3C[C@H]2CN1C(=O)c1ccccc1", "outcome": "inactive"}

Consider the molecule Cc1ccc(CNC(=O)C2(CC(C)C)C=CCN2C(=O)c2ccccc2)o1 (stereo unspecified) and give its measured outcome.
inactive

Next record, please: `C[C@@H]1C=C[C@](Cc2ccccc2)(C(=O)NCCN2CCOCC2)N1C(=O)c1ccccc1`
inactive

Next record, please: `COc1ccc2nc3c(c(-c4ccccc4)c2c1)CCC3`
inactive

Next record, please: `CC(=O)N1[C@H](C)C=C[C@]1(Cc1ccccc1)C(=O)NCc1ccc(C)o1`
inactive

Next record, please: `COC(=O)[C@@]1(Cc2ccc(OC)cc2)[C@H]2c3cc(C(=O)N(C)C)n(Cc4ccc(OC(F)(F)F)cc4)c3C[C@H]2CN1C(=O)c1ccccc1`
inactive

Next record, please: `COC(=O)[C@@]1(Cc2ccc(OC)cc2)[C@H]2c3cc(C(=O)N(C)C)n(CCF)c3C[C@H]2CN1C(=O)c1ccccc1`
inactive

Next record, please: CCCCCCN(C(=O)CCCCCN1C(=O)NC(c2ccc(-c3ccccc3)cc2)C(C(=O)OCc2ccccc2)=C1C)C(C(=O)NCCCC)c1ccc(OCC(=O)O)c(C(=O)O)c1 (stereo unspecified)
inactive

* * *

measured target: Ubiquitin carboxyl-terminal hydrolase 1 (Homo sapiens) (UniProt O94782)
Sequence (O94782 whole entry, looked up): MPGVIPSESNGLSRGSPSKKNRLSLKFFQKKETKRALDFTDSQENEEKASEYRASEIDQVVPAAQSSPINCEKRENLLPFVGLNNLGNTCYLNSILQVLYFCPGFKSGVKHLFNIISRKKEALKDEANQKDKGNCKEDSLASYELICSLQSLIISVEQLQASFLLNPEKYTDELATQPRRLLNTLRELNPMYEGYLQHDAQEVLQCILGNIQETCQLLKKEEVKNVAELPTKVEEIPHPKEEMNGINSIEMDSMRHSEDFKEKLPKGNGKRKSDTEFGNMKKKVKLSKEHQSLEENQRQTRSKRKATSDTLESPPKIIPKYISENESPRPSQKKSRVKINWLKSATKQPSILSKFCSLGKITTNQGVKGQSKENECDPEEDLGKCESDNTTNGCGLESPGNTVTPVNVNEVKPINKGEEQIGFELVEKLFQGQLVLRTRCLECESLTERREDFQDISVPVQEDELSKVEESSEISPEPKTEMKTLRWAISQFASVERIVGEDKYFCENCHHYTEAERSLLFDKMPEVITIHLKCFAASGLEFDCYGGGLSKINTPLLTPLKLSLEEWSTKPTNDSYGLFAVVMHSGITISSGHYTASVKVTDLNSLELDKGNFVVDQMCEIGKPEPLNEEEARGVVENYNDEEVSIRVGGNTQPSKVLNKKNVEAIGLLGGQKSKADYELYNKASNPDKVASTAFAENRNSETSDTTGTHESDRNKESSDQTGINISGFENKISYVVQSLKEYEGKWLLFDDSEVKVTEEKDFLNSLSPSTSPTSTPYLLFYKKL
assay details: Inhibitors of USP1/UAF1: Pilot qHTS (AID 504865); further: nearly all actives have a fitted effect of over 35% in size
study conditions: purified USP1/UAF1, Ub-rhodamine cleavage fluorescence; series mostly up to 114 µM
Records with an inconclusive call do not appear. Calls of active or inactive are those of the source. Calls follow the shape of the dose curve; as a rule, active = well fitted inhibition curve with a large enough effect; inconclusive = small, poorly fitted or top-dose-only effect; inactive = flat fitted curve, though single readings scatter. Bridge positions count the residues as written; N and C are the ends. Square brackets hold non-standard residues; d marks the D form. Peptide text beside a SMILES is read from it. * marks the point of attachment. ξ: configuration not given here. ξDab(CH2SO3H) = NC(CCNCS(=O)(=O)O)C(=O)O; Heptanoyl(6-Me) = CC(C)CCCCC(=O)*; Dab = NCC[CH](N)C(=O)O
Write down one outcome, taken from 1.0 for active, 0.0 for inactive

So what was the verdict on `c1ccc(-c2csc(-c3nc4ccccc4[nH]3)n2)cc1` in this test?
1.0

Next record, please: O=c1c2cc(O)c(O)cc2oc2cc(O)c(C3OC(CO)C(O)C(O)C3O)c(O)c12 (configuration not stated)
0.0

Next record, please: `CCOc1ccc(/C=C/C(=O)c2cccs2)cc1`
0.0

Next record, please: CC1(C)CC[C@]2(C(=O)O)CC[C@@]3(C)C(=CCC4[C@@]5(C)CCC(O)C(C)(C)C5CC[C@@]43C)C2C1 (some centres not stated)
0.0

Next record, please: CCC(C)C1NC(=O)C(CCNCS(=O)(=O)O)NC(=O)C(NC(=O)C(CCNCS(=O)(=O)O)NC(=O)C(NC(=O)C(CCNCS(=O)(=O)O)NC(=O)CCCCC(C)C)C(C)O)CCNC(=O)C(C(C)O)NC(=O)C(CCNCS(=O)(=O)O)NC(=O)C(CCNCS(=O)(=O)O)NC(=O)C(C(C)CC)NC1=O (configuration not stated) ({Heptanoyl(6-Me)}-[ξDab(CH2SO3H)]T[ξDab(CH2SO3H)][Dab][ξDab(CH2SO3H)]II[ξDab(CH2SO3H)][ξDab(CH2SO3H)]T; lactam 4-C; configuration not given here)
1.0

Next record, please: COc1ccc2c3c1OC1CC(O)C=C[C@@]31CCN(C)C2 (some centres not stated)
0.0

Next record, please: COc1cc(C2c3cc4c(cc3C(OC3OC5COC(C)O[C@@H]5C(O)C3O)C3COC(=O)C23)OCO4)cc(OC)c1O (some centres not stated)
0.0

Next record, please: C=C1C([C@@]2(C)C(OC(C)=O)CC(=O)O[C@@](C)(COC(C)=O)C2CC(=O)OC)C(OC=O)C(OC(=O)C(O)C(C)CC)[C@]2(C)C(c3ccoc3)CC(=O)C12O (some centres not stated)
0.0

Next record, please: `NC(N)=N/N=C\c1c(Cl)cccc1Cl`
0.0

Next record, please: CN(N=O)C(=O)N[C@H]1C(O)C(O)C(CO)O[C@@H]1O (some centres not stated)
0.0

Next record, please: `COc1cc2c(cc1OC)C(=O)OC2`
0.0

Next record, please: `Cc1cc(O)c(C)c(O)c1C(=O)O`
0.0

Next record, please: CC(=O)OCC(=O)[C@@]1(O)CCC2C3CCC4=CC(=O)CC[C@]4(C)C3=CC[C@@]21C (some centres not stated)
0.0

Next record, please: `O=C(/C=C/c1ccccc1)c1cccs1`
0.0

Next record, please: CC[C@H](/C=C/[C@@H](C)[C@H]1CC[C@H]2C3CC=C4C[C@@H](O)CC[C@]4(C)C3CC[C@]12C)C(C)C (some centres not stated)
0.0

Next record, please: `COc1cc2c(C(=O)c3ccccc3)c3c4c(cc(OC)c(OC)c4c2cc1OC)CCN3C`
1.0

Next record, please: C=CC1=C(C(=O)O)N2C(=O)[C@@H](NC(=O)C(N=O)c3csc(N)n3)[C@H]2SC1 (some centres not stated)
0.0

* * *

measured target: Cytochrome P450 3A4 (Homo sapiens)
assay details: qHTS Assay for Inhibitors and Substrates of Cytochrome P450 3A4 (AID 884); further: nearly all actives have a fitted effect of over 50% in size
study conditions: recombinant CYP3A4, Luciferin-PPXE luminescence; series mostly up to 57.1 µM
Results filed as inconclusive are left out. Activity calls are given as the source filed them. The call rests on the fitted dose curve; in most records, active means well fitted inhibition curve with a large enough effect; inconclusive means small, poorly fitted or top-dose-only effect; inactive means no such curve, though single readings can be large or run the other way.
Write down one outcome, taken from active, inactive

So what was the verdict on `COC(=O)[C@@]1(Cc2ccccc2)[C@H]2c3cc(C(=O)N4CCCC4)[nH]c3C[C@H]2CN1C(=O)c1ccccc1` in this test?
active

Next record, please: `COC(=O)[C@@H]1C[C@@]2(O)[C@H](O)[C@H](O)[C@H](O)C[C@H]2N1CC1CCCCC1`
inactive

Next record, please: `CC(=O)OC[C@@H]1O[C@@H](O/N=C2/C[C@@H](O)[C@@H](O)[C@@H]3[C@@H]4C(=O)N(Cc5ccc6c(c5)OCO6)C(=O)[C@H]4CC[C@H]23)[C@H](OC(C)=O)[C@H](OC(C)=O)[C@@H]1OC(C)=O`
active

Next record, please: `CC(C)=CCC/C(C)=C\COc1c2ccoc2cc2oc(=O)ccc12`
active

* * *

Tested on: N140
assay details: qHTS profiling for inhibitors of Plasmodium falciparum proliferation (AID 504749); further: nearly all actives have a fitted effect of over 60% in size
study conditions: P. falciparum in erythrocytes, SYBR Green DNA, 72 h; series mostly up to 28.7 µM
Results filed as inconclusive are left out. Calls of active or inactive are those of the source. Calls follow the shape of the dose curve; as a rule, active = well fitted inhibition curve with a large enough effect; inconclusive = small, poorly fitted or top-dose-only effect; inactive = flat fitted curve, though single readings scatter. Square brackets hold non-standard residues; d marks the D form. Peptide text beside a SMILES is read from it. Orn = NCCC[CH](N)C(=O)O
Write down one outcome, taken from active, inactive

So what was the verdict on CCC(Oc1ccccc1)C(=O)NC1C(=O)N2C1SC(C)(C)C2C(=O)O (configuration not stated) in this test?
inactive

Next record, please: `O=C(O)c1ccccc1-c1c2cc(Br)c(=O)c(Br)c-2oc2c(Br)c(O)c(Br)cc12`
inactive

Next record, please: `Cn1cc(O)nc1NC(=O)Nc1cccc(Cl)c1`
inactive

Next record, please: CC(C)CC1NC(=O)C(CCCN)NC(=O)C(C(C)C)NC(=O)C2CCCN2C(=O)C(Cc2ccccc2)NC(=O)C(CC(C)C)NC(=O)C(CCCN)NC(=O)C(C(C)C)NC(=O)C2CCCN2C(=O)C(Cc2ccccc2)NC1=O (configuration not stated) (cyclo(FPV[Orn]LFPV[Orn]L); configuration not given here)
active

Next record, please: CC(C)C[C@H](NC(=O)[C@@H](Cc1c[nH]c2ccccc12)NC(=O)[C@@H](Cc1ccc(O)cc1)NC(=O)[C@@H](CO)NC(=O)[C@@H](Cc1c[nH]c2ccccc12)NC(=O)C(Cc1cnc[nH]1)NC(=O)C1CCC(=O)N1)C(=O)N[C@@H](CCCN=C(N)N)C(=O)N1CCC[C@@H]1C(=O)NCC(N)=O (some centres not stated)
inactive

Next record, please: `O=C1/C(=C\c2cccs2)CCC/C1=C/c1cccs1`
inactive

Next record, please: CC(=O)OCC1=C(C(=O)O)N2C(=O)C(NC(=O)Cc3ccccc3)C2SC1 (configuration not stated)
inactive
